Items are presented alongside their recorded mean fluorescence intensity.
Subject Of Test: T1, cynomolgus CD47, on CHOK1-cCD47 stable cell line (cynomolgus)
T1 construct: whole, on cells; check before use; also called CHOK1/cynoCD47; monkey-derived CD47
Experimental Details: FACS CHOK1-cCD47; Ab 8 nM
Give the figure only, with no unit attached.

Binder | mean fluorescence intensity
20H4G5 (antibody, V domains shown, Murine hybridoma antibody purified on protein G) VH: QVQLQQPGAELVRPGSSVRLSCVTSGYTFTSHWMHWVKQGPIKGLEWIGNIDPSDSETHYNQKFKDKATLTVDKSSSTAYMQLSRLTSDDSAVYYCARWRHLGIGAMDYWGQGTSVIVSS VL: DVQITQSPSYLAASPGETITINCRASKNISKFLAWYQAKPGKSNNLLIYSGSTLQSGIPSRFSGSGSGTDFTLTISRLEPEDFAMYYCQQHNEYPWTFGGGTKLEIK | 16400
25E3B5 (antibody, V domains shown, Murine hybridoma antibody purified on protein G) VH: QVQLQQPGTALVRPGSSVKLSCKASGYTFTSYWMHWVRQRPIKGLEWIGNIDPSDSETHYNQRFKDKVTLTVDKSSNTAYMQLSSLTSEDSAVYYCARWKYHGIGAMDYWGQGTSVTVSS VL: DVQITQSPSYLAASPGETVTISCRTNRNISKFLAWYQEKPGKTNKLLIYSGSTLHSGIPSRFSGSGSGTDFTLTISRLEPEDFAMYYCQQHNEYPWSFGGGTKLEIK | 13200
132D1E5 (antibody, V domains shown, Murine hybridoma antibody purified on protein G) VH: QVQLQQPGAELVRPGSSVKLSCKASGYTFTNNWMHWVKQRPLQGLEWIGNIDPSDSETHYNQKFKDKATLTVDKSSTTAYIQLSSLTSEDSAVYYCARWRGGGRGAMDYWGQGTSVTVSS VL: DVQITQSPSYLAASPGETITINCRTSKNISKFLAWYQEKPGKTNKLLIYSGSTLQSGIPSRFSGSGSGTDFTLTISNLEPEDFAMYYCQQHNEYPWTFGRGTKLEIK | 8740
95E2D10 (antibody, V domains shown, Murine hybridoma antibody purified on protein G) VH: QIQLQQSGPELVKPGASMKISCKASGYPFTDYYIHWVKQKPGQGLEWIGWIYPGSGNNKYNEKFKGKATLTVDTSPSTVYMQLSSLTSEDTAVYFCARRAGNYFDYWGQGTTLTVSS VL: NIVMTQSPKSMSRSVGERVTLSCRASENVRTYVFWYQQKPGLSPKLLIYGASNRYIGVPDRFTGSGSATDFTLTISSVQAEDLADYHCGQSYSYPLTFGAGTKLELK | 21400

QUERY: Given the entry 54G8G6 (antibody, V domains shown, Murine hybridoma antibody purified on protein G) VH: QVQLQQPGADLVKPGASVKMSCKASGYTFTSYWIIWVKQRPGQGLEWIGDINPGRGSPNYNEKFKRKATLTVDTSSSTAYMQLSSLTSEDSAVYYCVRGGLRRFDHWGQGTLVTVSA VL: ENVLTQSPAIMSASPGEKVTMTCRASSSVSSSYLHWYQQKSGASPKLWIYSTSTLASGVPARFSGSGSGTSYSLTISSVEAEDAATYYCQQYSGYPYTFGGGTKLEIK , report its measured mean fluorescence intensity.
RESULT: 21300

QUERY: Check 4D10B11 (antibody, V domains shown, Murine hybridoma antibody purified on protein G) VH: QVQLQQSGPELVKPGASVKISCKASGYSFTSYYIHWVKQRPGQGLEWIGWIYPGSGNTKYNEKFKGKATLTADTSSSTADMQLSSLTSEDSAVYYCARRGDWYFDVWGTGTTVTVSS VL: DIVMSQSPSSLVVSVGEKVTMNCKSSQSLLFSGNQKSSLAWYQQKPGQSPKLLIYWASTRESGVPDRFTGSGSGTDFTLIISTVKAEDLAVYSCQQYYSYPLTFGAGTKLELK too.
RESULT: 12100

QUERY: Check 51E2F11 (antibody, V domains shown, Murine hybridoma antibody purified on protein G) VH: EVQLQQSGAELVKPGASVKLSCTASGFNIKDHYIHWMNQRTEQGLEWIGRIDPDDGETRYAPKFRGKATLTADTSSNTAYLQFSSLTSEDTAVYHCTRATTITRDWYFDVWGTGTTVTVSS VL: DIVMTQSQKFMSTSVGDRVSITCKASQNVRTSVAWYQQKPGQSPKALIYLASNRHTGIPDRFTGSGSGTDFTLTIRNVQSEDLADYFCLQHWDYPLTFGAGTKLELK too.
RESULT: 10600
